Biological target: pure CETP separated from human blood plasma (Homo sapiens, UniProt P11597)
Construct: Pure CETP was separated from human blood plasma in accordance with the method of Hesler et al; from tissue; host or cells: human blood plasma
Test: Determination of CETP inhibitory activity (CE transfer from [3H]-HDL to LDL), pure CETP as CETP source
Assay type: biochemical
Conditions: final conc. of peptide 2 μM; CETP source pure CETP; synthesized peptides
No end group written: not given here.

[
  {
    "record-sequence": "EDTSPEDKMQDYVK [Peptide P14]",
    "Inhibitory Activity (Mean ± S.D.), %": 50
  },
  {
    "record-sequence": "EDTSPEDKMQDYVKQATRTA [Peptide P20]",
    "Inhibitory Activity (Mean ± S.D.), %": 90
  },
  {
    "record-sequence": "EDTSPEDKMQDYVKQATRTAQDAL [Peptide P24]",
    "Inhibitory Activity (Mean ± S.D.), %": 100
  },
  {
    "record-sequence": "EDTSLLDKMQDYVKQATR [Peptide P18]",
    "Inhibitory Activity (Mean ± S.D.), %": 90
  }
]

* * *

Molecular target: pure CETP separated from human blood plasma (Homo sapiens, UniProt P11597)
Construct: Pure CETP was separated from human blood plasma in accordance with the method of Hesler et al; from tissue; host or cells: human blood plasma
Sequence (P11597 18-493): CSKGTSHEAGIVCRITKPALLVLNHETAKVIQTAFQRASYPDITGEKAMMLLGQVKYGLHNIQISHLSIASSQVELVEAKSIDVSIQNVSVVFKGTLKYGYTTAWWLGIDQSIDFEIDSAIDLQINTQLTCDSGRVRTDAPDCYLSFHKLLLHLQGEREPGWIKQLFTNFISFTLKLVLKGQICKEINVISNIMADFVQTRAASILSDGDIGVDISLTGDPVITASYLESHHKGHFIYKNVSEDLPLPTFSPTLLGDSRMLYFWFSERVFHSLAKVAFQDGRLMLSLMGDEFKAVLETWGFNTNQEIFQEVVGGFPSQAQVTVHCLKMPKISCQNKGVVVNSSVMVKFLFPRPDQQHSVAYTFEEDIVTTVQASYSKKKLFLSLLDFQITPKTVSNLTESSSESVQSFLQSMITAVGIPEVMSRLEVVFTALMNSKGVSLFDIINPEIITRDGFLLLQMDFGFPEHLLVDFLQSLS
Assay: Determination of CETP inhibitory activity (CE transfer from [3H]-HDL to LDL), pure CETP as CETP source
Assay type: biochemical
Conditions: final conc. 7 μM; alanine variants of P10; CETP source not given
No end group written: not given here.
Listed below: inhibition at 7 µM values for each entry.
reported-property: inhibition at 7 µM (%)

[
  {
    "record-sequence": "EATSPEDKMQ [Variant B]",
    "reported-property": "inhibition at 7 µM",
    "unit-annotation": "%",
    "observed": -15
  },
  {
    "record-sequence": "EDTSPEDKMA [Variant J]",
    "reported-property": "inhibition at 7 µM",
    "unit-annotation": "%",
    "observed": 41
  },
  {
    "record-sequence": "EDTAPEDKMQ [Variant D]",
    "reported-property": "inhibition at 7 µM",
    "unit-annotation": "%",
    "observed": -12
  },
  {
    "record-sequence": "ADTSPEDKMQ [Variant A]",
    "reported-property": "inhibition at 7 µM",
    "unit-annotation": "%",
    "observed": -12
  }
]

Ref: patent US5880095A
